biological target: Human cytomegalovirus protease (assemblin); experiment: Inhibitory concentration against human cytomegalovirus protease variant expressing a beta galactosidase reporter gene
pIC50: −log10 of the molar value.
Output satisfied for pIC50 not less than 6; output not satisfied otherwise.

Consider the worked cases shown below.
Cc1c(NC(=O)CN(C)C)ccc2nc(N[C@H](C)c3ccccc3)oc(=O)c12    not satisfied
Cc1cccc2nc(NC(C)C)oc(=O)c12    not satisfied

Field: next compound
Task item: Reported pIC50 reaches at least 6 for "Cc1cccc2nc(N[C@H](C)c3ccc(Br)cc3)oc(=O)c12" ?
Reply: satisfied
